Consider the following compounds and their measured IC50 readings.
Target: recombinant human MER (Homo sapiens, UniProt Q12866)
Sequence (Q12866 21-999): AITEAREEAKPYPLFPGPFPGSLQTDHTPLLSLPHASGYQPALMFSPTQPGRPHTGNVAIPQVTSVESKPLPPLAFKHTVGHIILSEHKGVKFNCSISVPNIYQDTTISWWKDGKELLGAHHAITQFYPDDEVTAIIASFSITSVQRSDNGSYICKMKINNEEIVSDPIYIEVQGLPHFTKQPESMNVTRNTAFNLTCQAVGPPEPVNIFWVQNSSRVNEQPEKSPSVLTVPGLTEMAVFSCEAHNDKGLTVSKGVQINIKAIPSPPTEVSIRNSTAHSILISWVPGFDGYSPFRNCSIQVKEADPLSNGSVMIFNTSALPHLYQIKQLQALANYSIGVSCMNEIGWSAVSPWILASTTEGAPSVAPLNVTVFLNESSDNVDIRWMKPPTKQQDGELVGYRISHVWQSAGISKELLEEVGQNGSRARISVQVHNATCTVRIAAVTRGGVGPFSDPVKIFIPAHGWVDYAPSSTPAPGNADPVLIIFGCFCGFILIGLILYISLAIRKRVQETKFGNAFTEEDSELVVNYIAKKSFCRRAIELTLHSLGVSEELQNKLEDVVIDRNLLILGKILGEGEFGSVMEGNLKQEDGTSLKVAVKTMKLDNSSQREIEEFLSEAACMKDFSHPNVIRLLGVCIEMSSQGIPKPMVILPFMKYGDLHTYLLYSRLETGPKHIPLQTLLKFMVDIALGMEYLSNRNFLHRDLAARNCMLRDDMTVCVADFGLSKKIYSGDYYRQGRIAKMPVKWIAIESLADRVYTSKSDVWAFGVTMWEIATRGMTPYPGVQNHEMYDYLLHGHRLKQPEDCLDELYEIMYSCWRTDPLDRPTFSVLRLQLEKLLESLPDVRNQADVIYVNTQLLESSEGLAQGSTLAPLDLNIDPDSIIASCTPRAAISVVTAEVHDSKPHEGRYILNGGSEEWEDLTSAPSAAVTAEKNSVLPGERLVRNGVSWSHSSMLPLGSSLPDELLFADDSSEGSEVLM
Assay: HTRF KinEASE-TK biochemical potency, MER
Conditions: 1 nM MER, 700 μM ATP
Readout: IC50

[[record]]
compound = "Cc1c(-c2n[nH]c3ncc(-c4ccc5c(c4)CCC(N4CCC[C@H]4C)CC5)cc23)ccc2c1OCCNC2=O (stereo partly shown) [Example 41]"
assay_target = "recombinant human MER (Homo sapiens, UniProt Q12866)"
obs_value = "100 to 1000 nM"

[[record]]
compound = "CC1(O)CCCOc2cc(-c3n[nH]c4ncc(-c5ccc6c(c5)CCN(C5CCCC5)CC6)cc34)ccc21 (stereo not shown) [Example 28]"
assay_target = "recombinant human MER (Homo sapiens, UniProt Q12866)"
obs_value = "100 to 1000 nM"

[[record]]
compound = "O=C1NCCOc2cc(-c3n[nH]c4ncc(-c5ccc6c(c5)CCC(N[C@@H]5CCOC5)CC6)cc34)ccc21 (stereo partly shown) [Example 46]"
assay_target = "recombinant human MER (Homo sapiens, UniProt Q12866)"
obs_value = "< 100 nM"

[[record]]
compound = "O=C1NCCOc2cc(-c3n[nH]c4ncc(-c5ccc6c(c5)CCNC6)cc34)ccc21 [Example 54]"
assay_target = "recombinant human MER (Homo sapiens, UniProt Q12866)"
obs_value = "100 to 1000 nM"

[[record]]
compound = "CC(C)C(=O)N1CCc2ccc(-c3cnc4[nH]nc(-c5ccc6c(c5)OCCNC6=O)c4c3)cc2CC1 [Example 16]"
assay_target = "recombinant human MER (Homo sapiens, UniProt Q12866)"
obs_value = "100 to 1000 nM"

[[record]]
compound = "C[C@@H]1CCCN1C1(C)CCc2ccc(-c3cnc4[nH]nc(-c5ccc6c(c5)OCCNC6=O)c4c3)cc2CC1 (stereo partly shown) [Example 23]"
assay_target = "recombinant human MER (Homo sapiens, UniProt Q12866)"
obs_value = "< 100 nM"

[[record]]
compound = "O=C1NCCOc2cc(-c3n[nH]c4ncc(-c5ccc6c(c5)CCNCC6)cc34)ccc21 [Example 53]"
assay_target = "recombinant human MER (Homo sapiens, UniProt Q12866)"
obs_value = "< 100 nM"

